# SYSTEM_NAME: Phosphatidylinositol 4,5-bisphosphate 3-kinase catalytic subunit alpha isoform (Homo sapiens) (UniProt P42336)
# Sequence (P42336 whole entry, canonical isoform): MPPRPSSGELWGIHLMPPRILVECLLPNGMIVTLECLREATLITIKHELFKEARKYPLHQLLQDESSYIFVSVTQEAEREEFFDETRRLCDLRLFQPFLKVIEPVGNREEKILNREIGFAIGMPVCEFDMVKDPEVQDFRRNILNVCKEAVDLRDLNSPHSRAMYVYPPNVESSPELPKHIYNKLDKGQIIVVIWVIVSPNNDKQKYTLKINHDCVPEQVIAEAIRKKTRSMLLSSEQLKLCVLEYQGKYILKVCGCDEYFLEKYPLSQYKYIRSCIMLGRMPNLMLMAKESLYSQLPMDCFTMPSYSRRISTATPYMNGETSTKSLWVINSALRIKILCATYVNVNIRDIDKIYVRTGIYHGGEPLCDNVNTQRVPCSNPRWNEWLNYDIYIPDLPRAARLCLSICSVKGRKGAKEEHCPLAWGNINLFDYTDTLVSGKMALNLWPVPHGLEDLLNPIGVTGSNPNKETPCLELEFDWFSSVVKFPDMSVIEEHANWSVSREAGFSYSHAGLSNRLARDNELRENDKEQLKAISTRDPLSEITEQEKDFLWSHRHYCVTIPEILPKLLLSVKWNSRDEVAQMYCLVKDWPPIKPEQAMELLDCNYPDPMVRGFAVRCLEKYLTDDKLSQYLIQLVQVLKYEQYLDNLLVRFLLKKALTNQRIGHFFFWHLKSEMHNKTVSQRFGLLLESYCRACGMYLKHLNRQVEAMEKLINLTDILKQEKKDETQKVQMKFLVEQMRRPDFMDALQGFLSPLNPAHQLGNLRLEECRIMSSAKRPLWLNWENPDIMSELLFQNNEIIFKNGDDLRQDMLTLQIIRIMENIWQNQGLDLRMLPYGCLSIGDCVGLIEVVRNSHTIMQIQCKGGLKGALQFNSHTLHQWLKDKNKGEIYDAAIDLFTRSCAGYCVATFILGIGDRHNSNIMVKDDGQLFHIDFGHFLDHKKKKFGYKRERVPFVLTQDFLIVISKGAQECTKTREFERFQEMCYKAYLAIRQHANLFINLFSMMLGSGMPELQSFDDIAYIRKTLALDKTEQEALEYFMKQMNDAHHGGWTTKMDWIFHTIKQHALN
# ASSAY: Inhibition PI3Kalpha (unknown origin) at 1 uM relative to control
MEASURED_QUANTITY: inhibition (%)

[
  {
    "CHEM_SMILES": "CC(C)N1c2cc(Nc3cccc(-c4ccccc4)c3)ccc2N(C)C(=O)[C@H]1C",
    "EXPERIMENTAL_VALUE": 6.1
  },
  {
    "CHEM_SMILES": "CC(C)N1c2cc(Nc3cccc(-c4ccncc4)c3)ccc2N(C)C(=O)[C@H]1C",
    "EXPERIMENTAL_VALUE": -1
  },
  {
    "CHEM_SMILES": "CC(C)N1c2cc(Nc3nccc(-c4cccc(C#N)c4)n3)ccc2N(C)C(=O)[C@H]1C",
    "EXPERIMENTAL_VALUE": 63.1
  },
  {
    "CHEM_SMILES": "COc1ccccc1-c1ccnc(Nc2ccc3c(c2)N(C(C)C)[C@H](C)C(=O)N3C)n1",
    "EXPERIMENTAL_VALUE": 0.1
  },
  {
    "CHEM_SMILES": "CC(C)N1c2cc(Nc3nccc(-c4ccccc4)n3)ccc2N(C)C(=O)[C@H]1C",
    "EXPERIMENTAL_VALUE": 22.9
  },
  {
    "CHEM_SMILES": "COc1ccccc1-c1cccc(Nc2ccc3c(c2)N(C(C)C)[C@H](C)C(=O)N3C)c1",
    "EXPERIMENTAL_VALUE": 3
  },
  {
    "CHEM_SMILES": "CC(C)N1c2cc(Nc3cccc(-c4cccc(C#N)c4)c3)ccc2N(C)C(=O)[C@H]1C",
    "EXPERIMENTAL_VALUE": 5.2
  },
  {
    "CHEM_SMILES": "CC(C)N1c2cc(Nc3nccc(-c4ccncc4)n3)ccc2N(C)C(=O)[C@H]1C",
    "EXPERIMENTAL_VALUE": 82.4
  }
]

====

# ASSAY: Half life in ICR mouse at 3 mg/kg, ip and measured up to 24 hrs by TQ-S triple quadrupole mass spectrometric method
# Type: ADME, organism-based
# DETAILS: in vivo
MEASURED_QUANTITY: half-life (min)

[
  {
    "CHEM_SMILES": "CC(C)N1c2cc(Nc3nccc(-c4cncc5ccccc45)n3)ccc2N(C)C(=O)[C@H]1C",
    "MEASURED_QUANTITY": "half-life",
    "READOUT_UNITS": "min",
    "EXPERIMENTAL_VALUE": 28.8
  }
]

====

# SYSTEM_NAME: UniProt O14965
# Sequence (whole entry): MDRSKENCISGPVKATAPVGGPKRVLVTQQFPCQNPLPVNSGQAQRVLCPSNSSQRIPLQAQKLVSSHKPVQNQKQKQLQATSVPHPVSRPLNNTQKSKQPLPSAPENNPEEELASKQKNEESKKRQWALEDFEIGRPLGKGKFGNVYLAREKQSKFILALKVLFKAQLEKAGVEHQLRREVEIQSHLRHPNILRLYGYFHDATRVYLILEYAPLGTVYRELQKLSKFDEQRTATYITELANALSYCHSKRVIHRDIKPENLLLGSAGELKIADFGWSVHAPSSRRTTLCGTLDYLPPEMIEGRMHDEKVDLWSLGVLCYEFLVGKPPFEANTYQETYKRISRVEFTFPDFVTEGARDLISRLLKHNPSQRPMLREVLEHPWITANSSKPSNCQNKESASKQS
# ASSAY: Inhibition AuroraA (unknown origin) at 1 uM relative to control

[
  {
    "CHEM_SMILES": "COc1ccccc1-c1ccnc(Nc2ccc3c(c2)N(C(C)C)[C@H](C)C(=O)N3C)n1",
    "READOUT_UNITS": "%",
    "inhibition": 86.8
  },
  {
    "CHEM_SMILES": "COc1ccccc1-c1cccc(Nc2ccc3c(c2)N(C(C)C)[C@H](C)C(=O)N3C)c1",
    "READOUT_UNITS": "%",
    "inhibition": -0.8
  },
  {
    "CHEM_SMILES": "CC(C)N1c2cc(Nc3cccc(-c4ccncc4)c3)ccc2N(C)C(=O)[C@H]1C",
    "READOUT_UNITS": "%",
    "inhibition": 14.2
  },
  {
    "CHEM_SMILES": "CC(C)N1c2cc(Nc3nccc(-c4cccc(C#N)c4)n3)ccc2N(C)C(=O)[C@H]1C",
    "READOUT_UNITS": "%",
    "inhibition": 54.4
  },
  {
    "CHEM_SMILES": "CC(C)N1c2cc(Nc3nccc(-c4ccncc4)n3)ccc2N(C)C(=O)[C@H]1C",
    "READOUT_UNITS": "%",
    "inhibition": 43.7
  },
  {
    "CHEM_SMILES": "CC(C)N1c2cc(Nc3cccc(-c4cccc(C#N)c4)c3)ccc2N(C)C(=O)[C@H]1C",
    "READOUT_UNITS": "%",
    "inhibition": -1.8
  },
  {
    "CHEM_SMILES": "CC(C)N1c2cc(Nc3cccc(-c4ccccc4)c3)ccc2N(C)C(=O)[C@H]1C",
    "READOUT_UNITS": "%",
    "inhibition": -1.5
  }
]
